- Experiment notes: Tissue distribution of selenium-75-labelled sterols in rats, sixth day post-injection
- Assay type: in vivo, rats of the C.F.Y. strain
- Conditions: male and female rats, tail vein, dose: 1, 7: 40 μCi, 6: 50 μCi, 3: 30 μCi, 4: 1.5 μCi, 5: 10 μCi, 8: 6.3 μCi
Could you please report measured % dose kg./g. in Blood for the items listed next?
Respond with the bare value in % dose kg./g..

input: Can you share its % dose kg./g. in Blood? I mean this molecule: CC(C)CCC[C@@H](C)[C@H]1CC[C@H]2[C@@H]3C[C@@H](C[75Se]Cc4ccccc4)C4=C(CC[C@H](O)C4)[C@H]3CC[C@]12C [Example 5]
output: 0.042

input: Can you share its % dose kg./g. in Blood? I mean this molecule: CC(C)CCC[C@@H](C)[C@H]1CC[C@H]2[C@@H]3C[C@@H](C[75Se]C4CCCCC4)C4=C(CC[C@H](O)C4)[C@H]3CC[C@]12C [Example 4]
output: 0.026

input: Can you share its % dose kg./g. in Blood? I mean this molecule: C[75Se]C[C@@H]1C[C@@H]2[C@H](CC[C@]3(C)[C@@H]([C@H](C)CCCC(C)C)CC[C@@H]23)C2=C1C[C@@H](O)CC2 [Example 1]
output: 0.024

input: Can you share its % dose kg./g. in Blood? I mean this molecule: C[75Se]C[C@@H]1C[C@@H]2[C@H](CC[C@]3(C)[C@@H]([C@H](C)CCCC(C)C)CC[C@@H]23)C2=C1C[C@@H](OC(C)=O)CC2 [Example 6]
output: 0.025
